For each entry below, report its pIC50 value.
Target: human LPA1 (Homo sapiens)
Experiment: LPA1 functional antagonist assay (calcium flux)
Conditions: CHO cells overexpressing human LPA1; inhibition of calcium flux induced by 10 nM LPA; read-out: hLPA1 IC50
Numbers only, as −log10 of the molar value.

• CCOc1cc(OCc2c(-c3ccc(O[C@H]4CCC[C@H](C(=O)O)C4)c(C)n3)nnn2C)ncn1 = 7.89
• Cc1nc(-c2nnn(C)c2COc2ccnc(C(F)(F)F)n2)ccc1O[C@H]1CCC[C@H](C(=O)O)C1 = 7.80
• Cc1nc(-c2nnn(C)c2Cc2nccc(-c3ccccc3)n2)ccc1O[C@H]1CCC[C@H](C(=O)O)C1 = 7.60
• CCCCNc1nc(NCc2c(-c3ccc(O[C@H]4CCC[C@H](C(=O)O)C4)c(C)n3)nnn2C)ncc1F = 7.16
• Cc1nc(-c2nnn(C)c2CNc2ncc(F)c(NCCOc3ccc(F)cc3)n2)ccc1O[C@H]1CCC[C@H](C(=O)O)C1 = 7.36
• Cc1nc(-c2nnn(C)c2CNc2cncc(-c3ccccc3)n2)ccc1O[C@H]1CCC[C@H](C(=O)O)C1 = 7.52
• CC(C)c1ccnc(NCc2c(-c3ccc(O[C@H]4CCC[C@H](C(=O)O)C4)cn3)nnn2C)n1 = 7.55
• Cc1nc(-c2nnn(C)c2CNc2nccc(Oc3ccccc3F)n2)ccc1O[C@H]1CCC[C@H](C(=O)O)C1 = 7.60
• Cc1nc(-c2nnn(C)c2COc2cc(N3CCOCC3)ncn2)ccc1O[C@H]1CCC[C@H](C(=O)O)C1 = 6.35
• Cc1nc(-c2nnn(C)c2CNc2ncnc(C3CCCC3)n2)ccc1O[C@H]1CCC[C@H](C(=O)O)C1 = 7.05

Ask: Please give the measured pIC50 for this compound: Cn1nnc(-c2ccc(O[C@H]3CCC[C@H](C(=O)O)C3)cn2)c1COc1cc(C(F)(F)F)ncn1
Result: 7.10

###

Target: human LPA1 (Homo sapiens, UniProt Q92633)
Sequence (Q92633 whole entry): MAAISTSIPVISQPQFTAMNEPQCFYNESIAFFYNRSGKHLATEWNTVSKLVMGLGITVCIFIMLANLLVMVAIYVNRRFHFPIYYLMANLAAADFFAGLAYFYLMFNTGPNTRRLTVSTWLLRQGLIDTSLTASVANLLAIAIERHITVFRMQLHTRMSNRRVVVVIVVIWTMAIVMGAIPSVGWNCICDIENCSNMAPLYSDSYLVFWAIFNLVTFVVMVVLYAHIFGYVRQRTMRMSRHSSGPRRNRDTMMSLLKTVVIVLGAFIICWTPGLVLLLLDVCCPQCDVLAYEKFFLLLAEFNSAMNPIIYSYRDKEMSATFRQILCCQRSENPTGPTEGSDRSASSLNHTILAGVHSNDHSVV
Experiment: LPA1 functional antagonist assay (calcium flux)
Details: CHO cells overexpressing human LPA1; inhibition of calcium flux induced by 10 nM LPA; read-out: hLPA1 IC50
Procedure: The effectiveness of compounds of the present invention as LPA1 inhibitors can be determined in an LPA1 functional antagonist assay as follows: Chinese hamster ovary cells overexpressing human LPA1 were plated overnight (15,000 cells/well) in poly-D-lysine coated 384-well microplates (Greiner bio-one, Cat #781946) in DMEM/F12 medium (Gibco, Cat #11039). […] IC50 values were determined by fitting data to a 4-parameter logistic equation (GraphPad Prism, San Diego Calif.).
# Y = IC50 below 40 nM (exclusive); N = IC50 at/above 40 nM

Ask: Please check: IC50 for Cc1nc(-c2nnn(C)c2CNc2nccc(OCC(F)(F)C(F)F)n2)ccc1O[C@H]1CCC[C@H](C(=O)O)C1 , strictly under 40 nM or not?
Result: Y

Ask: Same for Cc1nc(-c2nnn(C)c2CNc2nccc(Oc3ccc(F)cc3)n2)ccc1O[C@H]1CCC[C@H](C(=O)O)C1
Result: Y

Ask: Same for Cc1nc(-c2nnn(C)c2CNc2ncnc(CC(C)C)n2)ccc1O[C@H]1CCC[C@H](C(=O)O)C1
Result: N

Ask: Same for Cc1nc(-c2nnn(C)c2CNc2ncnc(C(C)C)n2)ccc1O[C@H]1CCC[C@H](C(=O)O)C1 [Example 333]
Result: N

Cited source: patent US11267800B2
